# key: entry, value: inhibition
- experimentalSystem: cAMP-dependent protein kinase (PKA) (Homo sapiens) (UniProt P22694+P17612+P22612)
- protocolText: Inhibition of PKA at 10 uM
- Format: protein assay
Answer in %, number only, no unit symbol.

Consider the following illustrative entries.
CONC(=O)c1cn(C)c(=O)c(C)c1Nc1ccc(Br)cc1F	-7
Cc1c(Nc2ccc(Br)cc2F)c(C(=O)NOCCO)cn(C)c1=O	15
CCONC(=O)c1cn(C)c(=O)c(C)c1Nc1ccc(Br)cc1F	-1

(Q) # lookup: inhibition of CCONC(=O)c1cn(C)c(=O)c(F)c1Nc1ccc(Br)cc1F
(A) 14

----------
- Test system: Malme-3M
- protocolText: Inhibition of cellular viability of Malme-3M cells
- Format: functional, Homo sapiens
In this scheme, each record receives a class according to its Activity; the ranges are range A: < 50 nM; range B: ≥ 50 nM and < 200 nM; range C: ≥ 200 nM

Cn1cc(C(=O)NCC2CC2)c(Nc2ccc(Br)cc2F)c(F)c1=O	range C
Cn1cc(C(=O)O)c(Nc2ccc(Br)cc2F)c(F)c1=O	range C
Cn1cc(C(=O)NOCCO)c(Nc2ccc(Br)cc2F)c(Cl)c1=O	range B
Cc1c(Nc2ccc(Br)cc2F)c(C(=O)NOCC2CC2)cn(C)c1=O	range A
O=C(NOCCO)c1cnc(Cl)c(Cl)c1Nc1ccc(Br)cc1F	range C

(Q) Bin? Cn1cc(C(=O)NOCC2CC2)c(Nc2ccc(Br)cc2F)cc1=O
(A) range B

(Q) Bin? CONC(=O)c1cn(C)c(=O)c(F)c1Nc1ccc(Br)cc1F
(A) range B

(Q) Bin? COc1ncc(C(=O)NOCCO)c(Nc2ccc(Br)cc2F)c1Cl
(A) range C

(Q) Bin? CNC(=O)c1cn(C)c(=O)c(F)c1Nc1ccc(Br)cc1F
(A) range C

(Q) Bin? Cn1cc(C(=O)NOCCO)c(Nc2ccc(Br)cc2F)cc1=O
(A) range C

(Q) Bin? CCONC(=O)c1cn(C)c(=O)c(C)c1Nc1ccc(Br)cc1F
(A) range B

(Q) Bin? Cc1c(Nc2ccc(Br)cc2F)c(C(=O)NOCCO)cn(C)c1=O
(A) range A

(Q) Bin? Cn1cc(C(=O)NOCC2CC2)c(Nc2ccc(Br)cc2F)c(F)c1=O
(A) range A

(Q) Bin? Cn1cc(C(=O)NOCCO)c(Nc2ccc(Br)cc2F)c(F)c1=O
(A) range B

(Q) Bin? Cn1cc(C(N)=O)c(Nc2ccc(Br)cc2F)c(F)c1=O
(A) range A
